Source listed as paper PMC8154566.

Examples of compounds with documented log10(solubility at 4 h) follow.
assay: FaSSIF (fasted state simulated intestinal fluid) solubility; assay type: physicochemical; conditions: pH 6.5, Table 5
Note the log scale: values are log10 of solubility at 4 h expressed in µM.

Record excerpt, results attached:
O=C(Nc1ccc(F)c(-c2cn3ncc(N4CCOCC4)cc3n2)c1)N1CCCC1
1.34
O=C(Nc1ccc(F)c(-c2cc3cc(N4CCOCC4)cnn3n2)c1)N1CCCC1
1.08
O=C(Nc1ccc(F)c(-c2cc3nc(N4CCOCC4)cnc3o2)c1)N1CCCC1
1.18
O=C(Nc1ccc(F)c(-c2cc3cc(N4CCOCC4)cnc3o2)c1)N1CCCC1
0.85

Task: Item under review: `O=C(Nc1ccc(F)c(-c2nc3ncc(N4CCOCC4)cn3n2)c1)N1CCCC1` . Reported log10(solubility at 4 h)?
Output: 1.87

====

Examples of compounds with documented EC50 follow.
Test system: L. donovani amastigotes
Test: INMAC assay: intramacrophage L. donovani in differentiated THP-1 cells
Assay type: cell-based, Leishmania donovani
Conditions: Leishmania donovani, THP-1; Table 6; at least three replicates, SD ≤0.4; read-out: INMAC pEC50 (converted)
Procedure: Intramacrophage L. donovani Assay. This assay was conducted as previously described, except for […]
Supply the numeric figure in nM, leaving out any unit text.

Record excerpt, results attached:
CC1(C)COCCN1c1cnc2nc(-c3cc(NC(=O)N4CCCC4)ccc3F)ccn12 [Compound 43]
794
O=C(Nc1ccc(F)c(-c2ccn3c(-c4ccccc4)cnc3n2)c1)N1CCCC1 [Compound 28]
251
O=C(Nc1ccc(F)c(-c2ccn3c(-c4ccccn4)cnc3n2)c1)N1CCCC1 [Compound 29]
398

Attention now shifts to the item below.
Task: Give EC50 (L. donovani amastigotes) of the following compound: CC1(C)CN(c2cnc3nc(-c4cc(NC(=O)N5CCCC5)ccc4F)ccn23)CCO1 [Compound 42]
Output: 1000

====

Examples of compounds with documented EC50 follow.
system: L. donovani amastigotes; assay: INMAC assay: intramacrophage L. donovani in differentiated THP-1 cells; type: cell-based, Leishmania donovani; conditions: Leishmania donovani, THP-1; Table 2; at least three replicates, SD ≤0.4; read-out: INMAC (pEC50) (converted)

Record excerpt, results attached:
O=C(Nc1nccc(-c2cn3cc(N4CCOCC4)cnc3n2)n1)N1CCCC1 [Compound 12]
> 50.1 µM
O=C(Nc1cnnc(-c2cn3cc(N4CCOCC4)cnc3n2)c1)N1CCCC1 [Compound 13]
> 50.1 µM

Task: Item under review: O=C(Nc1cncc(-c2cn3cc(N4CCOCC4)cnc3n2)n1)N1CCCC1 [Compound 11] . Reported EC50?
Output: > 50.1 µM

====

test: Kinetic aqueous solubility by CLND; type: physicochemical; details: Table 2; kinetic, CLND; read-out: Aq. solubility
metric: solubility

O=C(Nc1cncc(-c2cn3cc(N4CCOCC4)cnc3n2)n1)N1CCCC1 [Compound 11]
≥ 396 µM

Task: Item under review: COc1ccc(-c2cn3cc(N4CCOCC4)cnc3n2)cc1NC(=O)N1CCCC1 [Compound 8] . Reported solubility?
Output: ≥ 380 µM

Task: Item under review: O=C(Nc1cc(-c2cn3cc(N4CCOCC4)cnc3n2)ncn1)N1CCCC1 [Compound 10] . Reported solubility?
Output: ≥ 435 µM

====

assay: FaSSIF (fasted state simulated intestinal fluid) solubility; assay type: physicochemical; conditions: pH 6.5, Table 6
Threshold rule: solubility at 4 h greater than or equal to 300 µM is T; below that, F.

Example cases with answers are listed next.
CC(C)Nc1cnc2nc(-c3cc(NC(=O)N4CCCC4)ccc3F)ccn12
F
C[C@@H]1CN(c2cnc3nc(-c4cc(NC(=O)N5CCCC5)ccc4F)ccn23)C[C@H](C)O1
T
CC(C)c1cnc2nc(-c3cc(NC(=O)N4CCCC4)ccc3F)ccn12
F
CC(C)Cc1cnc2nc(-c3cc(NC(=O)N4CCCC4)ccc3F)ccn12
F
O=C(Nc1ccc(F)c(-c2ccn3c(CN4CCOCC4)cnc3n2)c1)N1CCCC1
T
O=C(Nc1ccc(F)c(-c2ccn3c(-c4ccccn4)cnc3n2)c1)N1CCCC1
F

Task: Threshold query (solubility at 4 h >= 300 µM) on `O=C(Nc1ccc(F)c(-c2ccn3c(-c4ccccc4)cnc3n2)c1)N1CCCC1`
Output: F

Task: Threshold query (solubility at 4 h >= 300 µM) on `CC(=O)N1CCN(c2cnc3nc(-c4cc(NC(=O)N5CCCC5)ccc4F)ccn23)CC1`
Output: T

Task: Threshold query (solubility at 4 h >= 300 µM) on `O=C1CN(c2cnc3nc(-c4cc(NC(=O)N5CCCC5)ccc4F)ccn23)CCN1`
Output: T

====

Examples of molecules with documented solubility follow.
Test: Kinetic aqueous solubility by CLND
Assay type: physicochemical
Settings: Table 6; kinetic, CLND; read-out: Aq. solubility
Protocol: We had successfully used these criteria in the hit to lead stage to identify compounds for in vivo proof-of-concept studies in another program, which subsequently led to the identification of preclinical candidate DDD853651/GSK3186899 active against CRK12.[7] […] A pharmacokinetic (PK) study was thus performed, dosed at 10 mg/kg po and 3 mg/kg iv. […]

Record excerpt, results attached:
CC(=O)N1CCN(c2cnc3nc(-c4cc(NC(=O)N5CCCC5)ccc4F)ccn23)CC1 [Compound 36]
≥ 381 µM
O=C(Nc1ccc(F)c(-c2ccn3c(N4CCNCC4)cnc3n2)c1)N1CCCC1 [Compound 35]
≥ 333 µM

Attention now shifts to the item below.
Task: Item under review: O=C(Nc1ccc(F)c(-c2ccn3c(CN4CCOCC4)cnc3n2)c1)N1CCCC1 [Compound 32] . Reported solubility?
Output: ≥ 348 µM

====

assay: Kinetic aqueous solubility by CLND; type: physicochemical; details: supplementary csv; read-out: Aqueous Solubility
Examples of compounds with documented solubility follow.

Record excerpt, results attached:
O=C(Nc1cccc(-c2cn3cc(N4CCOCC4)cnc3n2)n1)N1CCCC1
≥ 480 µM
O=C(Nc1cc(-c2cn3cc(N4CCOCC4)cnc3n2)ncn1)N1CCCC1
≥ 440 µM
O=C(Nc1ccc(F)c(-c2ccn3c(N4CCNCC4)cnc3n2)c1)N1CCCC1
≥ 330 µM
CC(=O)N1CCN(c2cnc3nc(-c4cc(NC(=O)N5CCCC5)ccc4F)ccn23)CC1
≥ 380 µM

Attention now shifts to the item below.
Task: Item under review: `COc1ccc(NC(=O)N2CCCC2)cc1-c1cn2cc(N3CCOCC3)cnc2n1` . Reported solubility?
Output: ≥ 430 µM

====

test system: L. donovani amastigotes; experiment: INMAC assay: intramacrophage L. donovani in differentiated THP-1 cells; type: cell-based, Leishmania donovani; conditions: Leishmania donovani, THP-1; Table 6; at least three replicates, SD ≤0.4; read-out: INMAC pEC50 (converted)
Examples of molecules with documented EC50 follow.

Record excerpt, results attached:
O=C1CN(c2cnc3nc(-c4cc(NC(=O)N5CCCC5)ccc4F)ccn23)CCN1
> 50.1 µM
CC(=O)N1CCN(c2cnc3nc(-c4cc(NC(=O)N5CCCC5)ccc4F)ccn23)CC1
> 50.1 µM

Attention now shifts to the item below.
Task: Item under review: `O=C(Nc1ccc(F)c(-c2ccn3c(N4CCNCC4)cnc3n2)c1)N1CCCC1` . Reported EC50?
Output: > 50.1 µM
